Entry source: patent EP1224288B1

- test-system: T1, chemokine receptor CCR1 (human, UniProt P32246 1-355)
- T1 construct: whole, on cells
- T1 sequence (looked up): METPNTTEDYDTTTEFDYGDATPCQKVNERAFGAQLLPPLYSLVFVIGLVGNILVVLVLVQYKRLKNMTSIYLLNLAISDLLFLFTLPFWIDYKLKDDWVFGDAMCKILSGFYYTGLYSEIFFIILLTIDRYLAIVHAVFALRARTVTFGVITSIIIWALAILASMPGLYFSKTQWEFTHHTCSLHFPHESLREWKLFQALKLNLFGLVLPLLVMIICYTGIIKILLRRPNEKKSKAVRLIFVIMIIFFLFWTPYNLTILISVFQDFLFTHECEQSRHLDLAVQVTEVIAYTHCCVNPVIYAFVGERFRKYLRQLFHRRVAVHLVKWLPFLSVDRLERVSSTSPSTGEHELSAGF
- test: radioligand competition binding on CCR1
measurement-label: Ki

Note Ki for the binder shown: full size HCC-1 (HCC-1, residues 1-74) (ligand, also called full-length HCC-1; HCC-1, 1-74) TKTESSSRGPYHPSECCFTYTTYKIPRQRIMDYYETNSQCSKPGIVFITKRGHSVCTNPSDKWVQDYIKDMKEN
100 nM
